# measured-on: T1, human PD-L2 antigen (Homo sapiens, UniProt Q9BQ51)
# T1 sequence (Q9BQ51 20-273): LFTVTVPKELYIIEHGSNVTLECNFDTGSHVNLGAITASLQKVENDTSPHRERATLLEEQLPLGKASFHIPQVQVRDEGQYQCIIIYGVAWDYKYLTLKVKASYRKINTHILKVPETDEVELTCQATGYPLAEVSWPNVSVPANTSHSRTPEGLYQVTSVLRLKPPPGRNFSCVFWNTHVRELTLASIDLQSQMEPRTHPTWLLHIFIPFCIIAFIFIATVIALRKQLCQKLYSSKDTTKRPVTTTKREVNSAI
# experiment-notes: Single cycle kinetics on Biacore 8K, binding to human PD-L2 antigen
# test-parameters: Table 3; preferred embodiments by Biacore
measured-parameter: kd (s⁻¹)
Unit s⁻¹ implied. Number only.

Example cases with answers are listed next.
Name the recorded kd for VH4/VK2: humanized anti-PD-L2 variant; SEQ ID NO: 5/SEQ ID NO: 11 (antibody, V domains shown) VH: QVQLVQSGAEVKKPGSSVKVSCKASGYAFSNYFIEWVKQPPGKGLEWIGLNIPGSGGSNYAEKFKGRVTITADKSTSTAYMELSSLRSEDTAVYYCARRRLPPDWYFDVWGQGTTVTVSS VL: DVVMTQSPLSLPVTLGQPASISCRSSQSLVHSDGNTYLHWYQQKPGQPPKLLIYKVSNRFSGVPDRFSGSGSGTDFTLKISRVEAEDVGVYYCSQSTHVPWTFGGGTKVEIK .
0.000129

# query: kd of entry VH6/VK3: humanized anti-PD-L2 variant; SEQ ID NO: 6/SEQ ID NO: 12 (antibody, V domains shown) VH: QVQLVQSGAEVKKPGSSVKVSCKASGYSFSNYFIEWVKQPPGKGLEWIGLNIPGSGGSNYAEKFKGRVTITADKSTSTAYMELSSLRSEDTAVYYCARRRLPPDWYFDVWGQGTTVTVSS VL: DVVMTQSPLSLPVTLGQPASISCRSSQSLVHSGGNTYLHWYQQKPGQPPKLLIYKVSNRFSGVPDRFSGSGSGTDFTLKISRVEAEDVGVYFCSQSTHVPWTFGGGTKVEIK
0.000444

Could you share which kd value was measured for VH7/VK2: humanized anti-PD-L2 variant; SEQ ID NO: 7/SEQ ID NO: 11 (antibody, V domains shown) VH: QVQLVQSGAELKKPGSSVKVSCKASGYAFSNYFIEWVKQPPGKGLEWIGLNIPGSGGSNYAEKFKGRATITADKSTSTAYMELSSLRSEDTAVYYCARRRLPPDWYFDVWGQGTTVTVSS VL: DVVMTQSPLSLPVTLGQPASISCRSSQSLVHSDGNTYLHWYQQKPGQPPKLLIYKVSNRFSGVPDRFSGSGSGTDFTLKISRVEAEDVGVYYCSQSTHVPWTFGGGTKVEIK ?
0.000118

Item under review: VH6/VK1: humanized anti-PD-L2 variant; SEQ ID NO: 6/SEQ ID NO: 10 (antibody, V domains shown) VH: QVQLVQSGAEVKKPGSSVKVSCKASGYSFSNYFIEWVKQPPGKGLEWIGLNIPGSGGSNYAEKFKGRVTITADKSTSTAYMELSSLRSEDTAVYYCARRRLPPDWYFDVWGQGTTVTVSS VL: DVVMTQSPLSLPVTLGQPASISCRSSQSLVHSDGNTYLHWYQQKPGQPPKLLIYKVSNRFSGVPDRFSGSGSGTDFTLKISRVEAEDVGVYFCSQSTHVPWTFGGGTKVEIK . Reported kd?
0.000121

# input molecule: VH6/VK2: humanized anti-PD-L2 variant; SEQ ID NO: 6/SEQ ID NO: 11 (antibody, V domains shown) VH: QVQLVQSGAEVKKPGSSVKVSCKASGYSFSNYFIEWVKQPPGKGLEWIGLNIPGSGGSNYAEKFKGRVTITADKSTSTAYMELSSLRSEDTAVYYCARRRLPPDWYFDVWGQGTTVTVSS VL: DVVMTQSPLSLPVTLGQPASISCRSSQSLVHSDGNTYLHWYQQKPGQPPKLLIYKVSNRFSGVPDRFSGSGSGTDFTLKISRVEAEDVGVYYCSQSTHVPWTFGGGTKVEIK ; wanted: its kd
0.000128

Others:
Which measured kd value corresponds to VH8/VK2: humanized anti-PD-L2 variant; SEQ ID NO: 8/SEQ ID NO: 11 (antibody, V domains shown) VH: QVQLVQSGAEVKKPGSSVKVSCKASGYAFSNYFIEWVKQPPGKGLEWIGLNIPGSGGSNYAEKFKGRATITADKSTSTAYMELSSLRSEDTAVYYCARRRLPPDWYFDVWGQGTTVTVSS VL: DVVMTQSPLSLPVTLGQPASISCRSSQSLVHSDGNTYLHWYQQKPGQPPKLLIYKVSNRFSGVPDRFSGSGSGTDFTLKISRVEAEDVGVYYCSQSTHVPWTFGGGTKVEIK ?
0.000121
